# test-name: octanol/water partition coefficient logKo/w
# Format: physicochemical
# run-conditions: 32° C., HPLC of each layer
readout: logP
API doc: respond with a numeric literal and nothing else, no unit.

Any idea what its logP is? The compound is "CN(C/C=C/C#CC(C)(C)C)Cc1cccc2ccccc12"
5.8
